Reported cell viability is given for each of the following compounds.
- Tested on: Caco-2
- Assay Method Text: cell viability relative to DMSO; higher = less toxic
- Conditions Used: 72 h; 100 nM
Attribute Measured: cell viability (%)

- CNNCc1ccc(C(=O)NC(C)C)cc1 [procarbazine]: 96.2
- CNc1ccc([N+](=O)[O-])cc1-n1cnc(-c2ccc(C(F)(F)F)cc2)c1 [CU-T12-9]: 96.8
- CC(C)N(CCCNC(=O)Nc1ccc(C(C)(C)C)cc1)C[C@H]1O[C@@H](n2ccc3c(N)ncnc32)[C@H](O)[C@@H]1O: 95.2
- c1ccc2cc(C3=NCCN3)ncc2c1 [BU226]: 94.3
- Nc1cc(F)ccc1NC(=O)/C=C/c1cnn(C/C=C/c2ccccc2)c1 [RGFP966]: 92.6
- O=C(O)CCCNC(=O)c1cccnc1 [pikamilone]: 98.4
- COc1ccc(-c2csc(NC(=O)[C@H]3CCCCN3S(=O)(=O)c3ccc(C)cc3)n2)cc1 [ML277]: 97.8

====

- Tested on: U2OS
- Assay Method Text: cell viability relative to DMSO; higher = less toxic
- Conditions Used: 72 h; 10 nM
Attribute Measured: cell viability (%)

- C[C@]12C=CC(=O)C=C1CC[C@@H]1[C@@H]2CC[C@]2(C)OC(=O)CC[C@@H]12: 98.2
- NC[C@@H]1CC[C@@H](N)[C@@H](O[C@H]2[C@H](O)[C@@H](O[C@H]3O[C@H](CO)[C@@H](O)[C@H](N)[C@H]3O)[C@H](N)C[C@@H]2N)O1: 97.9
- COc1ccccc1N1CCN(CC(O)COc2cc(OC)c(OC)c(OC)c2)CC1 (stereo unspecified): 98.2
- COc1ccc(-c2cc3nccn3c(Nc3ncccc3C(N)=O)n2)cc1OC: 97.4
- N#Cc1ccc(C2CCCc3cncn32)cc1 (stereo unspecified): 91.4
- C[C@]12CC[C@H]3[C@@H](CC[C@@]45O[C@@H]4C(O)=C(C#N)C[C@]35C)[C@@H]1CC[C@@H]2O: 103
- CC1=C(C(=O)O)N2C(=O)[C@@H](NC(=O)[C@H](N)c3ccc(O)cc3)[C@H]2SC1: 96.2
- NC(=O)c1ccc(F)c2c1C[C@@H](N(C1CCC1)C1CCC1)CO2: 107
- CO[C@@]1(NC(=O)Cc2cccs2)C(=O)N2C(C(=O)O)=C(COC(N)=O)CS[C@@H]21: 99
- C=CC[C@]1(O)CC[C@H]2[C@@H]3CCC4=CC(=O)CCC4=C3C=C[C@@]21C: 97.2
- FC(F)c1nc2ccccc2n1-c1nc(N2CCOCC2)nc(N2CCOCC2)n1: 97.4
- C=CC1=C(C)c2cc3[nH]c(cc4nc(cc5[nH]c(cc1n2)c(C)c5CCC(=O)O)C(CCC(=O)O)=C4C)c(C)c3C=C: 101
- CC1=C(C)C(=O)C(C(CCCCCC(=O)O)c2ccccc2)=C(C)C1=O (stereo unspecified): 95.7
- CC(=O)[C@H]1CC[C@H]2[C@@H]3CC=C4C[C@@H](OC(=O)CCC(=O)O)CC[C@]4(C)[C@H]3CC[C@]12C [pregnenolone-succinate]: 94.7
- COc1cc(OC)c(C(=O)CCCCN2CCC3(CC2)NC(=O)NC3=O)cc1NS(=O)(=O)c1ccc(C(F)(F)F)cc1: 106
- CCOc1cc2ncc(C#N)c(Nc3ccc(OCc4ccccn4)c(Cl)c3)c2cc1NC(=O)/C=C/CN(C)C: 96.7
